EC50 values, listed per item
System: primary human fibroblasts derived from IPF patients (LL29 cells)
Experiment: Inhibition of fibrosis: TGF-β1-treated primary human fibroblasts from IPF patients (LL29), αSMA staining
Format: cell-based
Details: Fibroblast, 96 h, TGF-β1 20 ng/mL, 4 days, % αSMA-positive cells
Excerpt: The above synthesized compounds were screened using primary human fibroblasts (derived from IPF patients) treated with TGF-β1 to determine their ability to inhibit the fibrotic process. […]
metric: EC50 (µM)

smiles_code=CN(C)c1cncc(-c2ccc3[nH]nc(-c4nc5c(-c6ccccc6F)nccc5[nH]4)c3c2)c1 recorded_value=0.018
smiles_code=CC(=O)c1ccc(-c2nccc3[nH]c(-c4n[nH]c5ccc(-c6cncc(NC(=O)Cc7ccccc7)c6)cc45)nc23)s1 recorded_value=0.009
smiles_code=CCCCC(=O)Nc1cncc(-c2ccc3[nH]nc(-c4nc5c(-c6cc(F)cc(NCCN(C)C)c6)nccc5[nH]4)c3c2)c1 recorded_value=0.459

----------
pIC50 values, listed per item
System: Wnt activity (Sp5-Luc reporter, SW480 colon carcinoma cells)
Test: Screening assay for Wnt activity: Sp5-Luc reporter gene assay in SW480 cells
Format: cell-based
Settings: Homo sapiens, 42 h incubation, luminescence
pIC50: −log10 of the molar value.
metric: pIC50

smiles_code=Oc1cncc(-c2ccc3[nH]nc(-c4nc5c(-c6cccc(F)c6)nccc5[nH]4)c3c2)c1 experimental_system="Wnt activity (Sp5-Luc reporter, SW480 colon carcinoma cells)" recorded_value=8.22
smiles_code=CN(C)c1cncc(-c2ccc3[nH]nc(-c4nc5c(-c6cccs6)nccc5[nH]4)c3c2)c1 experimental_system="Wnt activity (Sp5-Luc reporter, SW480 colon carcinoma cells)" recorded_value=8.05
smiles_code=c1cncc(-c2nccc3[nH]c(-c4n[nH]c5ccc(-c6cncc(CN7CCCCC7)c6)cc45)nc23)c1 experimental_system="Wnt activity (Sp5-Luc reporter, SW480 colon carcinoma cells)" recorded_value=6.50
smiles_code=CCCC(=O)Nc1cncc(-c2ccc3[nH]nc(-c4nc5c(-c6ccccc6F)nccc5[nH]4)c3c2)c1 experimental_system="Wnt activity (Sp5-Luc reporter, SW480 colon carcinoma cells)" recorded_value=8.30
smiles_code=CN1CCN(c2nccc3[nH]c(-c4n[nH]c5ccc(-c6cncc(NC(=O)CC(C)(C)C)c6)cc45)nc23)CC1 experimental_system="Wnt activity (Sp5-Luc reporter, SW480 colon carcinoma cells)" recorded_value=6.17
smiles_code=CC(C)CC(=O)Nc1cncc(-c2ccc3[nH]nc(-c4nc5c(-c6cc(F)cc(OCCN7CCCC7)c6)nccc5[nH]4)c3c2)c1 experimental_system="Wnt activity (Sp5-Luc reporter, SW480 colon carcinoma cells)" recorded_value=6.52

----------
pIC50 values, listed per item
Tested on: Wnt activity (Sp5-Luc reporter, SW480 colon carcinoma cells)
Assay: Screening assay for Wnt activity: Sp5-Luc reporter gene assay in SW480 cells
Format: cell-based
Conditions: Homo sapiens, 42 h incubation, luminescence
pIC50: −log10 of the molar value.
metric: pIC50

smiles_code=CS(=O)(=O)NCc1cc(F)cc(-c2nccc3[nH]c(-c4n[nH]c5ccc(-c6cncc(NC(=O)Cc7ccccc7)c6)cc45)nc23)c1 experimental_system="Wnt activity (Sp5-Luc reporter, SW480 colon carcinoma cells)" metric=pIC50 censoring_qualifier=< recorded_value=5.00
smiles_code=CC(C)Nc1cncc(-c2ccc3[nH]nc(-c4nc5c(-c6ccc(F)cc6)nccc5[nH]4)c3c2)c1 experimental_system="Wnt activity (Sp5-Luc reporter, SW480 colon carcinoma cells)" metric=pIC50 censoring_qualifier== recorded_value=7.37
smiles_code=c1ccc(-c2nccc3[nH]c(-c4n[nH]c5ccc(-c6cncc(CNCC7CCCC7)c6)cc45)nc23)nc1 experimental_system="Wnt activity (Sp5-Luc reporter, SW480 colon carcinoma cells)" metric=pIC50 censoring_qualifier== recorded_value=7.21
smiles_code=CC(C)(C)C(=O)Nc1cncc(-c2ccc3[nH]nc(-c4nc5c(-c6ccc(F)s6)nccc5[nH]4)c3c2)c1 experimental_system="Wnt activity (Sp5-Luc reporter, SW480 colon carcinoma cells)" metric=pIC50 censoring_qualifier== recorded_value=8.28
smiles_code=O=C(Nc1cncc(-c2ccc3[nH]nc(-c4nc5c(-c6ccccn6)nccc5[nH]4)c3c2)c1)c1ccccc1 experimental_system="Wnt activity (Sp5-Luc reporter, SW480 colon carcinoma cells)" metric=pIC50 censoring_qualifier=< recorded_value=5.00
smiles_code=CN(C)Cc1cncc(-c2ccc3[nH]nc(-c4nc5c(-c6cccc(F)c6)nccc5[nH]4)c3c2)c1 experimental_system="Wnt activity (Sp5-Luc reporter, SW480 colon carcinoma cells)" metric=pIC50 censoring_qualifier== recorded_value=9.00
smiles_code=O=C(CC1CCCCC1)Nc1cncc(-c2ccc3[nH]nc(-c4nc5c(-c6cccc(F)c6)nccc5[nH]4)c3c2)c1 experimental_system="Wnt activity (Sp5-Luc reporter, SW480 colon carcinoma cells)" metric=pIC50 censoring_qualifier== recorded_value=6.30
smiles_code=CN(C)Cc1cncc(-c2ccc3[nH]nc(-c4nc5c(-c6cccs6)nccc5[nH]4)c3c2)c1 experimental_system="Wnt activity (Sp5-Luc reporter, SW480 colon carcinoma cells)" metric=pIC50 censoring_qualifier== recorded_value=6.48
smiles_code=Fc1cccc(-c2nccc3[nH]c(-c4n[nH]c5ccc(-c6cncc(OCCN7CCCC7)c6)cc45)nc23)c1 experimental_system="Wnt activity (Sp5-Luc reporter, SW480 colon carcinoma cells)" metric=pIC50 censoring_qualifier== recorded_value=6.55
